System: B. fragilis 6688
Experiment: MIC determination, broth microdilution (CLSI)
Type: cell-based
Settings: Bacteroides fragilis, 6688, strain 15; read-out: strain 15 MIC
measurement-kind: log10 MIC (log10 of the value in µg/mL)
Short version: log10 scale, MIC, µg/mL.

## Task Tell me the measured log10 MIC of Cc1cc(OCCO/N=C(\C(=O)N[C@@H]2C(=O)N(OS(=O)(=O)O)C2(C)C)c2csc(N)n2)ccc1C(=N)N , please.
## Result 0.60

## Task Tell me the measured log10 MIC of CC1(C)[C@H](NC(=O)/C(=N\OCCOc2ccnc(C(=N)N)c2)c2csc(N)n2)C(=O)N1OS(=O)(=O)O , please.
## Result 0.30

## Task Tell me the measured log10 MIC of C[C@H]1[C@H](NC(=O)/C(=N\OCCNc2ccc(C(=N)N)cc2)c2csc(N)n2)C(=O)N1S(=O)(=O)O , please.
## Result 1.20

## Task Tell me the measured log10 MIC of CC1(C)[C@H](NC(=O)/C(=N\OCCSc2ccc(C(=N)N)cc2)c2csc(N)n2)C(=O)N1OS(=O)(=O)O , please.
## Result 0.00

## Task Tell me the measured log10 MIC of CC1(C)[C@H](NC(=O)/C(=N\OCCOc2ccc(C(=N)N)nc2)c2csc(N)n2)C(=O)N1OS(=O)(=O)O , please.
## Result 0.30

## Task Tell me the measured log10 MIC of C[C@H]1[C@H](NC(=O)/C(=N\OCCOc2ccc(C(=N)N)cc2N)c2csc(N)n2)C(=O)N1S(=O)(=O)O , please.
## Result 1.20

## Task Tell me the measured log10 MIC of C[C@H]1[C@H](NC(=O)/C(=N\OCCOc2ccc(C(=N)N)cc2Cl)c2csc(N)n2)C(=O)N1S(=O)(=O)O , please.
## Result 1.20

## Task Tell me the measured log10 MIC of C[C@H]1[C@H](NC(=O)/C(=N\OCCOc2ccc(C(=N)N)cc2)c2csc(N)n2)C(=O)N1OCS(=O)(=O)O , please.
## Result 0.90

## Task Tell me the measured log10 MIC of C[C@H]1[C@H](NC(=O)/C(=N\OCCOc2ccc(C(=N)NO)cc2)c2csc(N)n2)C(=O)N1S(=O)(=O)O , please.
## Result 1.51

## Task Tell me the measured log10 MIC of C[C@H]1[C@H](NC(=O)/C(=N\OCCOc2cnc(C(=N)N)cn2)c2csc(N)n2)C(=O)N1S(=O)(=O)O , please.
## Result 0.90

## Task Tell me the measured log10 MIC of CC1(C)[C@H](NC(=O)/C(=N\OCCOc2ccc(C3=NCCN3)cc2)c2csc(N)n2)C(=O)N1OS(=O)(=O)O , please.
## Result 0.30

## Task Tell me the measured log10 MIC of C[C@H]1[C@H](NC(=O)/C(=N\OCCOc2ccc(C(=N)N)cc2)c2csc(N)n2)C(=O)N1S(=O)(=O)O , please.
## Result 0.90

## Task Tell me the measured log10 MIC of C[C@H]1[C@H](NC(=O)/C(=N\OCCOc2nc(C(=N)N)cs2)c2csc(N)n2)C(=O)N1S(=O)(=O)O , please.
## Result 0.60

## Task Tell me the measured log10 MIC of C[C@H]1[C@H](NC(=O)/C(=N\OCCOc2ccc(C(=N)N)c(O)c2)c2csc(N)n2)C(=O)N1S(=O)(=O)O , please.
## Result 1.20

## Task Tell me the measured log10 MIC of C[C@H]1[C@H](NC(=O)/C(=N\OCCOc2ccc(C(=N)N)nc2)c2csc(N)n2)C(=O)N1S(=O)(=O)O , please.
## Result 0.90

## Task Tell me the measured log10 MIC of CC1(C)[C@H](NC(=O)/C(=N\OCCOc2ccc(C(=N)NC3CCNCC3)cc2)c2csc(N)n2)C(=O)N1OS(=O)(=O)O , please.
## Result 0.60

## Task Tell me the measured log10 MIC of C[C@H]1[C@H](NC(=O)/C(=N\OC(C)(C)COc2ccc(C(=N)N)cc2)c2csc(N)n2)C(=O)N1S(=O)(=O)O , please.
## Result 0.60

## Task Tell me the measured log10 MIC of CC1(C)[C@H](NC(=O)/C(=N\OCCOc2cc(C(=N)N)ccn2)c2csc(N)n2)C(=O)N1OS(=O)(=O)O , please.
## Result 0.60

## Task Tell me the measured log10 MIC of CC1(C)[C@H](NC(=O)/C(=N\OC(COc2ccc(C(=N)N)c(O)c2)C(=O)O)c2csc(N)n2)C(=O)N1OS(=O)(=O)O (mixture of isomers) [Example 34A] , please.
## Result 1.20

## Task Tell me the measured log10 MIC of CC1(C)[C@H](NC(=O)/C(=N\OCCOc2ccc(C(=N)NCCN)cc2)c2csc(N)n2)C(=O)N1OS(=O)(=O)O , please.
## Result 0.30

## Task Tell me the measured log10 MIC of C[C@@H]1[C@H](NC(=O)/C(=N\OCCOc2ccc(C(=N)N)cc2)c2csc(N)n2)C(=O)N1S(=O)(=O)O , please.
## Result 0.90

## Task Tell me the measured log10 MIC of C[C@H]1[C@H](NC(=O)/C(=N\OCc2cc(C(=N)N)cs2)c2csc(N)n2)C(=O)N1S(=O)(=O)O , please.
## Result 0.48

## Task Tell me the measured log10 MIC of Cc1cc(OCCO/N=C(\C(=O)N[C@@H]2C(=O)N(S(=O)(=O)O)[C@H]2C)c2csc(N)n2)ccc1C(=N)N , please.
## Result 1.20

## Task Tell me the measured log10 MIC of C[C@H]1[C@H](NC(=O)/C(=N\OCCOc2ccc(C(=N)N)nn2)c2csc(N)n2)C(=O)N1S(=O)(=O)O , please.
## Result 0.90

## Task Tell me the measured log10 MIC of C[C@H]1[C@H](NC(=O)/C(=N\OCCOc2ccc(C(=N)N)cn2)c2csc(N)n2)C(=O)N1S(=O)(=O)O , please.
## Result 0.90

## Task Tell me the measured log10 MIC of C[C@H]1[C@H](NC(=O)/C(=N\OCC(C)(C)Oc2ccc(C(=N)N)cc2)c2csc(N)n2)C(=O)N1S(=O)(=O)O , please.
## Result 0.60

Where do these numbers come from? They come from patent US9556165B2.
